Record set of Ki for target or system Melatonin receptor type 1B (Homo sapiens, UniProt P49286).
Give me the value, and tack the unit on after it.

Return reported Ki; argument: CCC(=O)NCCC1Cc2cccc3ccc(OC)c1c23 (configuration not stated)
0.24 nM

---

Target Under Test: Melatonin receptor type 1B (Homo sapiens, UniProt P49286)
Cut-off 0.3 nM on Ki: below means Condition met, at or above means Condition not met.

COc1ccc2cccc3c2c1C(CCNC(=O)C1CC1)C3 (stereo unspecified) : Condition not met
CCC(=O)NCCC1CCc2c(OC)ccc3ccc(OC)c1c23 (stereo unspecified) : Condition not met
CCCC(=O)NCCC1CCc2c(OC)ccc3ccc(OC)c1c23 (stereo unspecified) : Condition met
COc1ccc2ccc(OC)c3c2c1CCC3CNC(=O)C1CC1 (stereo unspecified) : Condition met

Criterion: Ki strictly below 0.3 nM. Is it met by COc1ccc2ccc(OC)c3c2c1CCC3CCNC(C)=O (stereo unspecified) ?
Condition not met

Criterion: Ki strictly below 0.3 nM. Is it met by CCCC(=O)NCC1CCc2c(OC)ccc3ccc(OC)c1c23 (stereo in doubt; 15c) ?
Condition met

Criterion: Ki strictly below 0.3 nM. Is it met by COc1ccc2cccc3c2c1CCC3CNC(C)=O (stereo unspecified) ?
Condition not met

Criterion: Ki strictly below 0.3 nM. Is it met by COc1ccc2cccc3c2c1CCC3CCNC(=O)C1CC1 (stereo unspecified) ?
Condition not met

Criterion: Ki strictly below 0.3 nM. Is it met by COc1ccc2cccc3c2c1C(CCNC(C)=O)CC3 (stereo unspecified) ?
Condition not met

Criterion: Ki strictly below 0.3 nM. Is it met by CCC(=O)NCC1CCc2c(OC)ccc3ccc(OC)c1c23 (stereo unspecified) ?
Condition met

---

Sequence of the target: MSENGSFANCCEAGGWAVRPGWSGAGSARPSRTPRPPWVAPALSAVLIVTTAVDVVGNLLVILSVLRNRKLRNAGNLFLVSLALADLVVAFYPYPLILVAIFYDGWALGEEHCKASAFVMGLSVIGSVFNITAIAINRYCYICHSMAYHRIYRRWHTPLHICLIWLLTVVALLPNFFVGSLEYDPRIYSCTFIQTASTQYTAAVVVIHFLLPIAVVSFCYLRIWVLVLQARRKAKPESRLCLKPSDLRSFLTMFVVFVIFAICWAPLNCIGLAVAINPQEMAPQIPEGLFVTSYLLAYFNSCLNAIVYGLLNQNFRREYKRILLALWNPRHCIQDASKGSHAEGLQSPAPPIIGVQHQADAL
Catalogue of Ki readings, one per entry.
The response must be a number in nM with no trailing unit.

Examples from the recorded data:
CCCC(=O)NCC1CCc2c(OC)ccc3cccc1c23 (single isomer, unassigned; (-)) : 0.068
CC(=O)NCCC1Cc2cccc3cccc1c23 (stereo unspecified) : 3.83
CCC(=O)NCC1CCc2c(OC)ccc3cccc1c23 (stereo unspecified) : 0.13
COc1ccc2cccc3c2c1CCC3CNC(=O)C1CC1 (stereo unspecified) : 0.79
COc1ccc2cccc3c2c1C(CNC(C)=O)C3 (stereo unspecified) : 0.12
CCC(=O)NCC1Cc2cccc3cccc1c23 (stereo unspecified) : 0.22
CCCC(=O)NCC1Cc2cccc3ccc(OC)c1c23 (stereo in doubt; 20c) : 0.35
CCCC(=O)NCC1Cc2cccc3cccc1c23 (stereo unspecified) : 0.093

Return reported Ki; argument: CCCC(=O)NCC1CCc2c(OC)ccc3cccc1c23 (stereo in doubt; 13c (+))
4.07

Return reported Ki; argument: CCCC(=O)NCC1CCc2c(OC)ccc3cccc1c23 (stereo in doubt; 13c)
0.11

Return reported Ki; argument: CCCC(=O)NCC1Cc2cccc3ccc(OC)c1c23 (single isomer, unassigned; (+))
7.4
